FYI, the data here is from the supplement of paper PMC3334620.

target: Stb4 (UniProt P50104); assay: PBM E-score (8-mer binding enrichment) (E-score (-0.5 to 0.5)); higher = stronger / more preferred TF binding; details: protein concentration: 200 nM; construct: GST-DNA-binding domain
Sequence (P50104 whole entry, the tested form may be a part): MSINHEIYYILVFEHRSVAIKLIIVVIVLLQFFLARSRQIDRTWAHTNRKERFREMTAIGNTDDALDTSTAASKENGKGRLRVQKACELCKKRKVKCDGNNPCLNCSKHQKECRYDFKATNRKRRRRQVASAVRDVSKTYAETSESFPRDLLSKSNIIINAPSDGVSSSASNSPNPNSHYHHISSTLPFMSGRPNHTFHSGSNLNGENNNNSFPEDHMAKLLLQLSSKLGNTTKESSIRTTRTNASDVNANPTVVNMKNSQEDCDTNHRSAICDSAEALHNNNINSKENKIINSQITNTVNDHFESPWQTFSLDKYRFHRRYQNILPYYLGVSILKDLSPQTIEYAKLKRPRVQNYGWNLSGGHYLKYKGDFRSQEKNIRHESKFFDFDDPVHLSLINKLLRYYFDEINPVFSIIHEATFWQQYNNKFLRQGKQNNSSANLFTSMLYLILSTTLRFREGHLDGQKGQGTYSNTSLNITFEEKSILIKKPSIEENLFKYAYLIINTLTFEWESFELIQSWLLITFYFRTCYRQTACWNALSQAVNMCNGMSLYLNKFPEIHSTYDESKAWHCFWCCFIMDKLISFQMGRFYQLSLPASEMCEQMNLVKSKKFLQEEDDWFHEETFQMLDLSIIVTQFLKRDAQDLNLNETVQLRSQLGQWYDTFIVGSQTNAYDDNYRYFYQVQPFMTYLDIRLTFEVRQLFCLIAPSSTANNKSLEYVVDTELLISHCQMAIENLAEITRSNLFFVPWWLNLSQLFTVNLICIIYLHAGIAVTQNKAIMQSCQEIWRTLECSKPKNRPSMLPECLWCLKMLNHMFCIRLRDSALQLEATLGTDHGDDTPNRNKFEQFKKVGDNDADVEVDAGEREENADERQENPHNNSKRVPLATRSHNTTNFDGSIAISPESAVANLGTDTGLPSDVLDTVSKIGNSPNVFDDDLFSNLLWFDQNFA
Over roughly 33,000 sequences, “E-score (-0.5 to 0.5)” has its median near -0.056; the highest 2% begin near 0.38. Only a selection was taken, and the highest values are over-represented in it overall.
Listed below: PBM E-score values for each entry.
Form: value (number only, do not type unit).

IN: Could you share what PBM E-score was measured for "GGATTCCA" , tested on Stb4 (UniProt P50104)?
OUT: 0.13

IN: PBM E-score of "CAAATCTA" on Stb4 (UniProt P50104)?
OUT: -0.211

IN: Missing value: PBM E-score, Stb4 (UniProt P50104), entry "CATTCGGC" . Fill in?
OUT: 0.409

IN: What PBM E-score appears in the records for this sequence with Stb4 (UniProt P50104)? "ATATTCCG"
OUT: 0.393

IN: Give the reported PBM E-score for "ATTGACCC" (system: Stb4 (UniProt P50104)).
OUT: 0.0534

IN: Param readout= PBM E-score; system= Stb4 (UniProt P50104); entry= "GGAATCAC" ; returns value.
OUT: 0.244

* * *

biological target: Stb4 (UniProt P50104); assay: PBM E-score (8-mer binding enrichment) (E-score (-0.5 to 0.5)); higher = stronger / more preferred TF binding; conditions: protein concentration: 200 nM; construct: GST-DNA-binding domain
In all, about 33,000 sequences were measured (“E-score (-0.5 to 0.5)”: median about -0.056, highest 2% from about 0.38 on). This is one part of a sample in which the highest values are shown more often than they occur.
# PBM E-score binned as bin A: < -0.02; bin B: ≥ -0.02 and < 0.3; bin C: ≥ 0.3

1) GGATCCCA
bin B
2) ATCCGATC
bin C
3) CAGCTTTC
bin A
4) AGCTTCGC
bin A
5) GACGTACC
bin A
6) CTCCGATC
bin B
7) GGATCCTA
bin B
8) ACGAAAAA
bin A
9) TCAGATCA
bin A
10) AACTTCGG
bin C

IN: Bin? "CACGGGTA"
OUT: bin C

* * *

molecular target: Stb4 (UniProt P50104); assay: PBM E-score (8-mer binding enrichment) (E-score (-0.5 to 0.5)); higher = stronger / more preferred TF binding; conditions: protein concentration: 200 nM; construct: GST-DNA-binding domain
In all, about 33,000 sequences were measured (“E-score (-0.5 to 0.5)”: median about -0.056, highest 2% from about 0.38 on). The entries come from a sample that favours the highest values as a whole.
reported.metric: PBM E-score
Returns: the value as a bare number; no unit string appended.

1) GACCGCTA
0.0181
2) AGTTTGGG
-0.172
3) CCGGTAGA
0.264
4) GCGACCAA
-0.183
5) CGACTCGC
-0.0581
6) GGCATGCC
0.156
7) ACCATATA
-0.114
8) ACGAGCCA
-0.307
9) AAATCATT
-0.067
10) TCGAGCCA
-0.204

Let's switch to this sequence now.
IN: # input sequence: "ACCTGGTG" ; wanted: its PBM E-score
OUT: -0.0216

* * *

molecular target: Stb4 (UniProt P50104); assay: PBM E-score (8-mer binding enrichment) (E-score (-0.5 to 0.5)); higher = stronger / more preferred TF binding; details: protein concentration: 200 nM; construct: GST-DNA-binding domain
Whole data set: some 33,000 sequences, median “E-score (-0.5 to 0.5)” near -0.056, cut for the highest 2% near 0.38. The list comes from a sample in which the highest values are over-represented; it also holds close analogues and randomly drawn sequences.
reported.metric: PBM E-score
Just the number, please.

Answered cases to consult:
1) ATGCCAAA
-0.302
2) CCGAGGCC
0.436
3) ACTCAGTG
-0.208
4) ATGCCGAG
0.423
5) CTGCCGAA
0.411

IN: Please give the measured PBM E-score for this sequence: "CCGAGGCA"
OUT: 0.396

IN: # input sequence: "GTGCCGAA" ; wanted: its PBM E-score
OUT: 0.441

IN: I would be grateful if you could share the reported PBM E-score for "ACGAGGCG" .
OUT: -0.0457

IN: Reported PBM E-score for "CCGAGGCG" : what is it?
OUT: 0.398

IN: // query PBM E-score value for entry "ACGAGGCC"
OUT: -0.0545

IN: What value of PBM E-score has been reported for the following sequence? "ATGCCGTG"
OUT: 0.00847

* * *

molecular target: Stb4 (UniProt P50104); assay: PBM E-score (8-mer binding enrichment) (E-score (-0.5 to 0.5)); higher = stronger / more preferred TF binding; conditions: protein concentration: 200 nM; construct: GST-DNA-binding domain
Whole data set: some 33,000 sequences, median “E-score (-0.5 to 0.5)” near -0.056, cut for the highest 2% near 0.38. The full list was thinned out, with the highest values kept by preference.
Some sequences, each annotated with its measured PBM E-score.
# respond with the number and nothing more

1. ACCGGGAA
0.335

IN: For the sequence "CCTAACAA" , what PBM E-score is on record?
OUT: -0.248

IN: Name the recorded PBM E-score for "TCCGGACA" .
OUT: 0.322

* * *

target: Stb4 (UniProt P50104); experiment: PBM E-score (8-mer binding enrichment) (E-score (-0.5 to 0.5)); higher = stronger / more preferred TF binding; settings: protein concentration: 200 nM; construct: GST-DNA-binding domain
The full ranking holds about 33,000 sequences; the median of “E-score (-0.5 to 0.5)” is about -0.056, and the highest 2% start at about 0.38. Many of the other results were omitted from the sample, so the highest values are more common in it than they were.
Use 0.2 as the dividing line for PBM E-score, with the line itself on the True side and lower values as False.

IN: Is it the case that "CATCCGTC" has PBM E-score reaching or exceeding 0.2?
OUT: True

* * *

target: Stb4 (UniProt P50104); assay: PBM E-score (8-mer binding enrichment) (E-score (-0.5 to 0.5)); higher = stronger / more preferred TF binding; details: protein concentration: 200 nM; construct: GST-DNA-binding domain
Over roughly 33,000 sequences, “E-score (-0.5 to 0.5)” has its median near -0.056; the highest 2% begin near 0.38. What follows is part of a selection rich in the highest values, with near analogues and random picks from the rest.
Lab note: compare PBM E-score against -0.03. Equal or greater, write label 1. Smaller, write label 0.

1. CTGGGAAA
label 0
2. CAACTAGG
label 0
3. ATGACGGA
label 1

Could you now consider this next sequence?
IN: hey, is PBM E-score for this one >= -0.03? "ACCTTCCT"
OUT: label 0

* * *

Collected PBM E-score values appear next to each entry.
target: Stb4 (UniProt P50104); assay: PBM E-score (8-mer binding enrichment) (E-score (-0.5 to 0.5)); higher = stronger / more preferred TF binding; conditions: protein concentration: 200 nM; construct: GST-DNA-binding domain
In all, about 33,000 sequences were measured (“E-score (-0.5 to 0.5)”: median about -0.056, highest 2% from about 0.38 on). The full list was thinned out, with the highest values kept by preference.
I'd appreciate a reply containing only the number, no unit.

Consider the worked cases shown below.
1) CATTTAGG
-0.174
2) ATTCCCGC
0.295
3) TACGAAAA
-0.0536
4) AACCGTCT
0.00908

IN: Form entry - test system: Stb4 (UniProt P50104); read-out: PBM E-score; sequence: "CTTTTCAC"
OUT: -0.191

IN: // map "GATCGGTA" to recorded PBM E-score (system: Stb4 (UniProt P50104))
OUT: 0.407

IN: Short answer please: PBM E-score, Stb4 (UniProt P50104), entry "CCTCGGTA"
OUT: 0.38

IN: // lookup PBM E-score | system=Stb4 (UniProt P50104) | key= "CGCGGATC"
OUT: 0.263

IN: Provide value of PBM E-score for this record tested with Stb4 (UniProt P50104): "GTTCCCCA"
OUT: -0.244

IN: // fetch Stb4 (UniProt P50104) PBM E-score for "CTTCCCGC"
OUT: 0.2

IN: Please provide the recorded PBM E-score for "GTTCCCGA" , tested on Stb4 (UniProt P50104).
OUT: 0.419

IN: Kindly state the measured PBM E-score obtained for "GCCGAGGC" with Stb4 (UniProt P50104).
OUT: 0.436

IN: Query for Stb4 (UniProt P50104): what PBM E-score does the record show for "CACACTAA" ?
OUT: -0.194

IN: Which measured PBM E-score belongs to "AGTTTCCG" , tested on Stb4 (UniProt P50104)?
OUT: 0.437

IN: // map "AGCGGATC" to recorded PBM E-score (system: Stb4 (UniProt P50104))
OUT: 0.255

IN: Please tell me: PBM E-score of "GTACGGAA" , system Stb4 (UniProt P50104)?
OUT: 0.323

IN: Query for Stb4 (UniProt P50104): what PBM E-score does the record show for "AGCGGATA" ?
OUT: 0.386

IN: Quick check: PBM E-score on Stb4 (UniProt P50104), item "CTTCGAAA" ?
OUT: -0.2
